Measured values drawn from PubChem BioAssay for this set.

Measured On: Pantothenate synthetase (Mycobacterium tuberculosis (strain ATCC 25618 / H37Rv)) (UniProt P9WIL5)
Sequence (P9WIL5 whole entry, looked up): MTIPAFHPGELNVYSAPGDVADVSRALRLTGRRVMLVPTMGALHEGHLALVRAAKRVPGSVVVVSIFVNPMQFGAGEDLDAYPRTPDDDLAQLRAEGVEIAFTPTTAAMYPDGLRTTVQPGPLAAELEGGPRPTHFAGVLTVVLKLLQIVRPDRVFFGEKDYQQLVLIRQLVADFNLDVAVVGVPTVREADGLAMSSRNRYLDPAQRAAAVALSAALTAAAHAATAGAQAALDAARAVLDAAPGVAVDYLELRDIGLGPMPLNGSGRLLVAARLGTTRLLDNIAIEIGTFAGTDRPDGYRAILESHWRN
Assay Name: Coupled enzyme confirmation of inhibitors against recombinant Mtb PanC (AID 375);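 note: 0% = full reaction with vehicle and 100% = no enzyme background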
Test Parameters: coupled enzyme assay; at 10 µM, hits give high values
The source made the active and inactive calls. The rule behind the calls is not given here.
Parameter Measured: inhibition

Example results:
# input Report inhibition for `COc1ccc(Cl)cc1N1CCN(CCNC(=O)Nc2ccccc2C)CC1`
# output 0% (inactive)

# input Quickly give me recorded inhibition for COc1ccc(C(CNC(=O)c2ccc(OCC3CCCO3)cc2)N2CCOCC2)cc1 (stereo unspecified)
# output 0% (inactive)

# input For the molecule `COc1ccc(CC(=O)OCn2nnc3ccccc3c2=O)cc1` , give its reported inhibition.
# output 4% (inactive)

# input Input `O=c1/c(=C/c2ccco2)sc2nc(-c3ccccc3Br)nn12` , output reported inhibition.
# output 0% (inactive)

New cases:
# input Give inhibition for the following molecule: `Cc1ccc(-c2cc(C(F)(F)F)n3nc(C(=O)N4CCCC4)cc3n2)cc1`
# output 5% (inactive)

# input Identify the reported inhibition for the following entry. Cc1nc(NC(=O)C23CCC(C)(C(=O)O2)C3(C)C)sc1C (stereo unspecified)
# output 0% (inactive)
